- Target desc: Cytochrome P450 1B1 (Homo sapiens, UniProt Q16678)
- Sequence (Q16678 whole entry): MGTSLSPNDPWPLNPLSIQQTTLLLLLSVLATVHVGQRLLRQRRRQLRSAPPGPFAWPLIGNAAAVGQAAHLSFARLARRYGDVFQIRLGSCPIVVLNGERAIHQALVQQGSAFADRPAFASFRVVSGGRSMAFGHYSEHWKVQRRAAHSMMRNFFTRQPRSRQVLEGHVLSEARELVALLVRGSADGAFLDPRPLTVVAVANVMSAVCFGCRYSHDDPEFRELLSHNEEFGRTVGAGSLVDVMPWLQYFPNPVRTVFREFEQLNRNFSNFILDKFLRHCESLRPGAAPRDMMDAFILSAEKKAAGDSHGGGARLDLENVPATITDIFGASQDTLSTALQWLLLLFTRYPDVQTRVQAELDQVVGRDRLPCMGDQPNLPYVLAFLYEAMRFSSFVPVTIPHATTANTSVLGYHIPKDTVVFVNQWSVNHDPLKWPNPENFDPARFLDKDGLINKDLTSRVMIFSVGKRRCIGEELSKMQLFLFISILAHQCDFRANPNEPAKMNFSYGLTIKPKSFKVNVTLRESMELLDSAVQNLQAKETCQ
- Assay comment: Inhibition of human recombinant CYP1B1 using 7-ethoxyresorufin as substrate preincubated with enzyme for 5 mins followed by fluorescent substrate and NADPH addition and measured after 35 mins by EROD assay
# pIC50 values compiled below
Expect pIC50 as a plain number equal to -log10 of the molar concentration.

Consider the reported pIC50 for these molecules:
Mol smiles: CCNc1nc(-c2ccc(I)cc2)nc2ccccc12
Target desc: Cytochrome P450 1B1 (Homo sapiens, UniProt Q16678)
pIC50: 12.69

Mol smiles: Nc1nc(-c2ccc(Br)cc2)nc2ccccc12
Target desc: Cytochrome P450 1B1 (Homo sapiens, UniProt Q16678)
pIC50: 9.31

Next item in the queue.
q: State its pIC50 on Cytochrome P450 1B1 (Homo sapiens, UniProt Q16678): `Cl.FCCNc1nc(-c2ccc(I)cc2)nc2ccccc12`
a: 9.82
